Reported IC50 values are given for each entry in this list.
- STUDY_TARGET: BACE1 (Homo sapiens (Human), UniProt P56817)
- Sequence (P56817 46-501): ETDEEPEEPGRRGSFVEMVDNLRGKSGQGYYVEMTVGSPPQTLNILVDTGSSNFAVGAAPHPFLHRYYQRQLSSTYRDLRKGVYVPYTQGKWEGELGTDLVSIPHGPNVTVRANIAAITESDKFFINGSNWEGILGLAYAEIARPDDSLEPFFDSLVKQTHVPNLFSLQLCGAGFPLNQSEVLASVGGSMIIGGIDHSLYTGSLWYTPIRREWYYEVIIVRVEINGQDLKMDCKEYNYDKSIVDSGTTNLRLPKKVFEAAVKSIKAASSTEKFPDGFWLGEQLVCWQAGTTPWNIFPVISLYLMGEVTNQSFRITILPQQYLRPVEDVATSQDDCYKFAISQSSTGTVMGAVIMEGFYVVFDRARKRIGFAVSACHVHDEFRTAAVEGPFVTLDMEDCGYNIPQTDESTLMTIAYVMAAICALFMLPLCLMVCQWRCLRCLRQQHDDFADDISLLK
- PROCEDURE_DETAILS: In vitro enzymatic BACE1 FRET assay
- Type: biochemical
- TEST_CONTEXT: read-out: IC50 IP (μM) BACE1 Enzyme
READOUT_TYPE: IC50 (µM)

>>> df
                                   compound  readout_type  unit_spec  value_observed
0  C[C@H]1CN(C(=O)[C@]23C[C@H]2[C@@](C)(c2cc(/C=C(\F)c4ccc(C#N)cn4)ccc2F)N=C(N)S3)CCO1 [Example 321]          IC50         µM          0.0035
1  C#CCOc1cnc(/C(F)=C/c2ccc(F)c([C@@]3(C)N=C(N)S[C@@]4(c5ncc(C)o5)C[C@@H]34)c2)cn1 [Example 345]          IC50         µM          0.0063
2  C[C@]1(c2cc(/C=C(\F)c3ccc(C#N)cn3)ccc2F)N=C(N)S[C@@]2(C(=O)N3CCO[C@H]4C[C@H]43)C[C@H]21 [Example 311]          IC50         µM          0.0018

---

- STUDY_TARGET: UniProt:P56817
- PROCEDURE_DETAILS: In vitro enzymatic BACE1 FRET assay
- Type: biochemical
- TEST_CONTEXT: read-out: IC50 IP (μM) BACE1 Enzyme
Reported IC50 values are given for each entry in this list.

MOLECULE	IC50, µM
CC#CCOc1cnc(/C(F)=C/c2ccc(F)c([C@@]3(C)N=C(N)S[C@@]4(C#N)C[C@H]43)c2)cn1 [Example 244]	0.0004
C[C@@H]1COC[C@H](C)N1C(=O)[C@]12C[C@H]1[C@@](C)(c1cc(/C=C(\F)c3ccc(C#N)cn3)ccc1F)N=C(N)S2 [Example 313]	0.0019
CN(C)C(=O)[C@]12C[C@H]1[C@@](C)(c1cc(/C(F)=C/c3ccc(C#N)cc3)ccc1F)N=C(N)S2 [Example 221]	0.128
COC[C@]12C[C@H]1[C@@](C)(c1cc(/C=C(\F)c3ccc(Cl)cn3)ccc1F)N=C(N)S2 [Example 286]	0.0712
C[C@]1(c2cc(/C=C(\F)c3cnc(C#N)cn3)ccc2F)N=C(N)S[C@@]2(C(=O)N3CC[C@@H](F)C3)C[C@H]21 [Example 203]	0.001
C#CCOc1cnc(/C(F)=C/c2ccc(F)c([C@@]3(C)N=C(N)S[C@@]4(C(N)=O)C[C@H]43)c2)cn1 [Example 239]	0.0013
C[C@]1(c2cc(/C=C(\F)c3cnc(C#N)cn3)ccc2F)N=C(N)S[C@@]2(C(=O)N3CC[C@H](F)C3)C[C@H]21 [Example 202]	0.001
CNC(=O)[C@]12C[C@H]1[C@@](C)(c1cc(/C=C(\F)c3cnc(Cl)cn3)ccc1F)N=C(N)S2 [Example 352]	0.007
C#Cc1cnc(/C(F)=C/c2ccc(F)c([C@@]3(C)N=C(N)S[C@@]4(C(=O)N5CCOCC5)C[C@H]43)c2)cn1 [Example 350]	0.004
C[C@]1(c2cc(/C=C(\F)c3ccc(C#N)cn3)ccc2F)N=C(N)S[C@@]2(C(=O)N3CC[C@@H](O)C3)C[C@H]21 [Example 333]	0.0008
C[C@]1(c2cc(/C=C(\F)c3ccc(C#N)cn3)ccc2F)N=C(N)S[C@@]2(C(=O)N3CCCC3)C[C@H]21 [Example 107]	0.000673
C[C@]1(c2cc(/C=C(\F)c3ccc(C#N)cn3)cnc2F)N=C(N)S[C@@]2(C(=O)N3CC[C@H](F)C3)C[C@H]21 [Example 182]	0.0024
CC1(C)CC2CC(C)(CN2C(=O)[C@]23C[C@H]2[C@@](C)(c2cc(/C=C(\F)c4ccc(C#N)cn4)ccc2F)N=C(N)S3)C1 (stereo partly shown) [Example 136]	0.00582

---

- STUDY_TARGET: Cathepsin D (CatD) (Homo sapiens (Human), UniProt P07339)
- Sequence (P07339 65-412, species assumed): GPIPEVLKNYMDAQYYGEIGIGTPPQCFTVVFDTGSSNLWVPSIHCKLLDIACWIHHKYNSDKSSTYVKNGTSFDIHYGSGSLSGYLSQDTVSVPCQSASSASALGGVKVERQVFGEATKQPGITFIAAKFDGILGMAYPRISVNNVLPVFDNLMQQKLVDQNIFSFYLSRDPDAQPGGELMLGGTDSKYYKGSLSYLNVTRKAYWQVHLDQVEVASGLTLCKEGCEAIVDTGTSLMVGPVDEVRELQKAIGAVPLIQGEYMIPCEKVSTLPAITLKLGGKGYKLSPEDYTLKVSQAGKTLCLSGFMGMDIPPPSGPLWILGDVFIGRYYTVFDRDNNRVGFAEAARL
- PROCEDURE_DETAILS: CatD assay
- Type: biochemical
- TEST_CONTEXT: read-out: IC50 IP (μM) CatD
Reported IC50 values are given for each entry in this list.
READOUT_TYPE: IC50 (µM)

In [3]: df
Out[3]:
                            molecule_smiles  value_observed
0  C#CCOc1cnc(/C(F)=C/c2cnc(F)c([C@@]3(C)N=C(N)S[C@@]4(C(=O)NCC(F)F)C[C@H]43)c2)cn1              20
1  COC[C@]12C[C@H]1[C@@](C)(c1cc(/C=C(\F)c3cnc(OCC(F)(F)F)cn3)ccc1F)N=C(N)S2             209
2  C[C@]1(c2cc(/C=C(\F)c3ccc(C#N)cn3)ccc2F)N=C(N)S[C@@]2(C(=O)N3CCNC(=O)C3)C[C@H]21             400
3  COC(=O)[C@]12C[C@H]1[C@@](C)(c1cc(/C=C(/F)c3ccc(Cl)cn3)cnc1F)N=C(N)S2             527

---

- STUDY_TARGET: BACE2 (Homo sapiens (Human))
- Sequence (Q9Y5Z0 63-518): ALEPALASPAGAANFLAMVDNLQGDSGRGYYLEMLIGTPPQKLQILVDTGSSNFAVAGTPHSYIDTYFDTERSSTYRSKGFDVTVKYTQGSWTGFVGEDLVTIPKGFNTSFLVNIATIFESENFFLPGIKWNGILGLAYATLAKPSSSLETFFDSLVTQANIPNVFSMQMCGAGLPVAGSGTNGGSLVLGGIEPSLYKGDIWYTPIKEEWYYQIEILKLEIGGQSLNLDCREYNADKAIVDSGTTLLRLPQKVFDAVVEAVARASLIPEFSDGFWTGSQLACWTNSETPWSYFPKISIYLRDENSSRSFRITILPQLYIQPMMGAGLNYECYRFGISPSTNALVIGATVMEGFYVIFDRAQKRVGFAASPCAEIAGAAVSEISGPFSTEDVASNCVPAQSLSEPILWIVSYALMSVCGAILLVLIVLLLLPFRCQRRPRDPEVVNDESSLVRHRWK
- PROCEDURE_DETAILS: In vitro enzymatic BACE2 FRET assay
- Assay type: biochemical
- TEST_CONTEXT: read-out: IC50 IP (μM) BACE2 Enzyme
We label by threshold. Values of IC50 strictly beneath 0.3 µM are condition met. Values of 0.3 µM and up are condition not met.

In [3]: df
Out[3]:
                                   compound              group
0  CC1CCCN1C(=O)[C@]12C[C@H]1[C@@](C)(c1cc(/C=C(\F)c3ccc(C#N)cn3)ccc1F)N=C(N)S2 (stereo partly shown)      condition met
1  CNC(=O)[C@]12C[C@H]1[C@@](C)(c1cc(/C=C(\F)c3cnc(OCC(F)(F)C(F)F)cn3)ccc1F)N=C(N)S2  condition not met
2  C[C@]1(c2cc(/C=C(\F)c3ccc(C#N)cn3)ccc2F)N=C(N)S[C@@]2(C(=O)N3CCN(CC4CC4)CC3)C[C@H]21  condition not met
3  COC[C@]12C[C@H]1[C@@](CF)(c1cc(/C=C(/F)c3ccc(Cl)cn3)ccc1F)N=C(N)S2      condition met
4  COC[C@]12C[C@H]1[C@@](C)(c1cc(/C=C(\F)c3cnc(OCC4CC4)cn3)ccc1F)N=C(N)S2  condition not met
5  CC#CCOc1cnc(/C(F)=C/c2cnc(F)c([C@@]3(C)N=C(N)S[C@@]4(C(=O)N(C)C)C[C@H]43)c2)cn1      condition met

---

- STUDY_TARGET: BACE1 (Homo sapiens (Human), UniProt P56817)
- PROCEDURE_DETAILS: In vitro enzymatic BACE1 FRET assay
- Type: biochemical
- TEST_CONTEXT: read-out: IC50 IP (μM) BACE1 Enzyme
READOUT_TYPE: log10 of IC50 (log10 of the value in µM)

In [3]: df
Out[3]:
                                   compound   readout_type  value_observed
0  C[C@]1(c2cc(/C=C(\F)c3ccc(C#N)cn3)ccc2F)N=C(N)S[C@@]2(C(=O)N3CCC3)C[C@H]21  log10 of IC50           -2.87
1  CC(=O)[C@]12C[C@H]1[C@@](C)(c1cc(/C=C(\F)c3cnc(OCC(F)(F)F)cn3)ccc1F)N=C(N)S2  log10 of IC50           -0.93
2  C[C@]1(c2cc(/C=C(\F)c3cnc(C#N)cn3)ccc2F)N=C(N)S[C@@]2(C(=O)N3CCCCC3)C[C@H]21  log10 of IC50           -3.00
3  C#Cc1ccc(/C(F)=C/c2ccc(F)c([C@@]3(C)N=C(N)S[C@@]4(C(=O)N5CCOCC5)C[C@H]43)c2)nc1  log10 of IC50           -2.15
4  CN(C)C(=O)[C@]12C[C@H]1[C@@](C)(c1cc(/C=C(\F)c3cnc(OCc4ncco4)cn3)ccc1F)N=C(N)S2  log10 of IC50           -2.10
5  CC1CCN1C(=O)[C@]12C[C@H]1[C@@](C)(c1cc(/C=C(\F)c3ccc(Cl)cn3)ccc1F)N=C(N)S2 (stereo partly shown)  log10 of IC50           -2.21
6  CN(C)C(=O)[C@]12C[C@H]1[C@@](C)(c1cc(/C=C(\F)c3cnc(OCC#N)cn3)ccc1F)N=C(N)S2  log10 of IC50           -0.94

---

- STUDY_TARGET: BACE1 (Homo sapiens (Human), UniProt P56817)
- PROCEDURE_DETAILS: In vitro enzymatic BACE1 FRET assay
- Type: biochemical
- TEST_CONTEXT: read-out: IC50 IP (μM) BACE1 Enzyme
Binned IC50; ranges: low: < 0.002 µM; intermediate: ≥ 0.002 µM and < 0.02 µM; high: ≥ 0.02 µM

>>> print(df.to_string())
                             molecule_smiles         group
 0  COCCOc1cnc(/C(F)=C/c2ccc(F)c([C@@]3(C)N=C(N)S[C@@]4(C(=O)N(C)C)C[C@H]43)c2)cn1  intermediate
 1  COC[C@H]1COCCN1C(=O)[C@]12C[C@H]1[C@@](C)(c1cc(/C=C(\F)c3ccc(C#N)cn3)ccc1F)N=C(N)S2  intermediate
 2  CC[C@H]1COCCN1C(=O)[C@]12C[C@H]1[C@@](C)(c1cc(/C=C(\F)c3ccc(C#N)cn3)ccc1F)N=C(N)S2  intermediate
 3  CN(C)C(=O)[C@]12C[C@H]1[C@@](C)(c1cc(/C=C(\F)c3cnc(OCC(F)F)cn3)ccc1F)N=C(N)S2          high
 4  COC(=O)[C@]12C[C@H]1[C@@](C)(c1cc(/C=C(\F)c3ccc(Cl)cn3)cnc1F)N=C(N)S2          high
 5  C[C@]1(c2cc(/C=C(\F)c3ccc(C#N)cn3)ccc2F)N=C(N)S[C@@]2(S(C)(=O)=O)C[C@H]21           low
 6  COC(=O)[C@]12C[C@H]1[C@@](C)(c1cc(/C=C(\F)c3ccc(Cl)cn3)cc(F)c1F)N=C(N)S2          high
 7  CNC(=O)[C@]12C[C@H]1[C@@](C)(c1cc(/C=C(\F)c3ncc(C#N)cc3C)ccc1F)N=C(N)S2          high
 8  C[C@]1(c2cc(/C=C(\F)c3ccc(Br)cn3)ccc2F)N=C(N)S[C@@]2(C(=O)N3CCOCC3)C[C@H]21           low
 9  Cc1nnc(COc2cnc(/C(F)=C/c3ccc(F)c([C@@]4(C)N=C(N)S[C@@]5(C(=O)N(C)C)C[C@H]54)c3)cn2)o1  intermediate
10  C[C@]1(c2cc(/C=C(\F)c3ccc(Cl)cn3)ccc2F)N=C(N)S[C@@]2(C(=O)N3CCCC3)C[C@H]21           low
11  CN(C)C(=O)[C@]12C[C@H]1[C@@](C)(c1cc(/C=C(\F)c3ncc4c(n3)OCCO4)ccc1F)N=C(N)S2          high
